# Test system: T47D
# Experiment: Antiproliferative activity against human T47D cells assessed as cell growth inhibition at 10 uM incubated for 48 hrs by sulforhodamine B assay relative to control
# Type: functional
# inhibition at 10 µM per entry
Hi! Could you send only the number? It should be in %, unit omitted.

Solved entries (count: 2):
- c1ccc(Cn2cnc3ccc(-c4nc(-c5ccc6c(c5)ncn6C5CCCCC5)cn5ccnc45)cc32)cc1: -2.12
- Clc1ccc(-c2cn3ccnc3c(-c3ccc4ncn(C5CCCCC5)c4c3)n2)cc1: 27.6

Query :: Sample COc1ccccc1-c1cn2ccnc2c(-c2ccc3ncn(C4CCCCC4)c3c2)n1 — what was its inhibition at 10 µM?
Result :: 36.6

Query :: Sample c1ccc(Cn2cnc3ccc(-c4nc(-c5cccc6ccccc56)cn5ccnc45)cc32)cc1 — what was its inhibition at 10 µM?
Result :: 73.8

Query :: Sample O=Cc1ccc(-c2cn3ccnc3c(-c3ccc4ncn(Cc5ccccc5)c4c3)n2)cc1 — what was its inhibition at 10 µM?
Result :: 98

Query :: Sample Fc1ccc(-c2cn3ccnc3c(-c3ccc4ncn(C5CCCCC5)c4c3)n2)cc1 — what was its inhibition at 10 µM?
Result :: 33.3

Query :: Sample c1csc(-c2cn3ccnc3c(-c3ccc4ncn(C5CCCCC5)c4c3)n2)c1 — what was its inhibition at 10 µM?
Result :: 70.3

Query :: Sample CC(=O)c1ccc(-c2cn3ccnc3c(-c3ccc4ncn(C5CCCCC5)c4c3)n2)cc1 — what was its inhibition at 10 µM?
Result :: 54.4

Query :: Sample c1cn2cc(-c3ccsc3)nc(-c3ccc4ncn(C5CCCCC5)c4c3)c2n1 — what was its inhibition at 10 µM?
Result :: 63.7

Query :: Sample Brc1cn2ccnc2c(-c2ccc3ncn(C4CCCCC4)c3c2)n1 — what was its inhibition at 10 µM?
Result :: 49.7

Entry source: ChEMBL document CHEMBL5247578
